Entry source: patent US20060257938A1

- protocol.summary: Probe fluorescence ratio response to linolenic acid relative to ADIFAB2
- Format: binding
- recorded.conditions: response relative to ADIFAB2

molecule | DR/DR LNA
49Q1, 72A (protein, listed as Rattus norvegicus, PEPTIDE (1)...(131) wild-type rat intestinal fatty acid binding protein) AFDGTWKVDRNENYEKFMEKMGINVVKRKLGAHDNLKLTITQEGNKFTQKESSNFRNIDVVFELGVDFAYSAADGTELTGTWTMEGNKLVGKFKRVDNGKELIAVREISGNELIQTYTYEGVEAKRIFKKE | 1.23
21W 78I 72A (protein, listed as Rattus norvegicus, PEPTIDE (1)...(131) wild-type rat intestinal fatty acid binding protein) AFDGTWKVDRNENYEKFMEKWGINVVKRKLGAHDNLKLTITQEGNKFTVKESSNFRNIDVVFELGVDFAYSAADGTEITGTWTMEGNKLVGKFKRVDNGKELIAVREISGNELIQTYTYEGVEAKRIFKKE | 4.024
14L 18S 31L 73V 117A 72A (protein, listed as Rattus norvegicus, PEPTIDE (1)...(131) wild-type rat intestinal fatty acid binding protein) AFDGTWKVDRNENLEKFSEKMGINVVKRKLLAHDNLKLTITQEGNKFTVKESSNFRNIDVVFELGVDFAYSAVDGTELTGTWTMEGNKLVGKFKRVDNGKELIAVREISGNELIQTATYEGVEAKRIFKKE | 0.673
18V 31Y 73V 72A (protein, listed as Rattus norvegicus, PEPTIDE (1)...(131) wild-type rat intestinal fatty acid binding protein) AFDGTWKVDRNENYEKFVEKMGINVVKRKLYAHDNLKLTITQEGNKFTVKESSNFRNIDVVFELGVDFAYSAVDGTELTGTWTMEGNKLVGKFKRVDNGKELIAVREISGNELIQTYTYEGVEAKRIFKKE | 2.605
55V, 72A (protein, listed as Rattus norvegicus, PEPTIDE (1)...(131) wild-type rat intestinal fatty acid binding protein) AFDGTWKVDRNENYEKFMEKMGINVVKRKLGAHDNLKLTITQEGNKFTVKESSNVRNIDVVFELGVDFAYSAADGTELTGTWTMEGNKLVGKFKRVDNGKELIAVREISGNELIQTYTYEGVEAKRIFKKE | 0.477
